TARGET_OF_ASSAY: CXCL11 (Homo sapiens) (UniProt O14625)
Sequence: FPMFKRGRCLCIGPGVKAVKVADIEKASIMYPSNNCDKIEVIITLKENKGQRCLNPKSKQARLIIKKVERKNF
ASSAY_COMMENT: ELONA
CONDITION_PARAMETERS: indole-clicked EdU at all N (28,44,47,49,50) [28,44,47,49,50 (indole-clicked EdU)]; n=2
OBSERVABLE: Kd (nM)

[[record]]
query_sequence = "CACGACGCAAGGGACCACAGGAGAGACTCACGGGCGGGCGACCTACTGTTCAGCCCAGACCGACAGCACGACACCGCAGAGGCA [I29 In]"
target_of_assay = "CXCL11 (Homo sapiens) (UniProt O14625)"
quantitative_readout = 17


----------
TARGET_OF_ASSAY: CXCL9 (MIG) (Homo sapiens)
Sequence: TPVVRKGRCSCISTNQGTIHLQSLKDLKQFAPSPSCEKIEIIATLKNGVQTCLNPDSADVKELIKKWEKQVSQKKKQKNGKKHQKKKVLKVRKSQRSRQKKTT
ASSAY_COMMENT: ELONA
CONDITION_PARAMETERS: benzofurane-clicked EdU at all N [28,44,47,49,50 (benzofurane-clicked EdU)]; n=2
OBSERVABLE: Kd (nM)

[[record]]
query_sequence = "CACGACGCAAGGGACCACAGGAGAGACTCACGGGCGGGCGACCTACTGTTCAGCCCAGACCGACAGCACGACACCGCAGAGGCA [I29 BnFu]"
quantity_unit = "nM"
quantitative_readout = 17


----------
TARGET_OF_ASSAY: CXCL9 (MIG) (Homo sapiens) (UniProt Q07325)
Sequence: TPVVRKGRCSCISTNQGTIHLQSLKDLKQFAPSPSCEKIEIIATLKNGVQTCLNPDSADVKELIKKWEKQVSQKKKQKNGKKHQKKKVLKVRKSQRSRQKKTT
ASSAY_COMMENT: ELONA
CONDITION_PARAMETERS: indole-clicked EdU at all N (28,44,47,49,50) [28,44,47,49,50 (indole-clicked EdU)]; n=2
OBSERVABLE: Kd (nM)

[[record]]
query_sequence = "CACGACGCAAGGGACCACAGGAGAGACTCACGGGCGGGCGACCTACTGTTCAGCCCAGACCGACAGCACGACACCGCAGAGGCA [I29 In]"
quantity_unit = "nM"
quantitative_readout = 12

